- assay_details: Fraction unbound in human serum by ultracentrifugation assay
- Type: ADME, cell-free
endpoint: fraction unbound
Give the figure by itself; no unit, no explanation.

Report fraction unbound for C[C@](O)(c1ccc(C(=O)N(C2CC2)[C@H]2CC[C@](O)(C3CC3)CC2)cc1)C(F)(F)F
0.12

====

- Test system: HeLa
- assay_details: Cytotoxicity against human HeLa cells after 72 hrs by alamar blue assay
pIC50: −log10 of the molar value.
Measured pIC50 accompanies every entry in the list below.

Study these solved cases before continuing.
{"item_smiles": "C[C@](O)(c1ccc(C(=O)N(C2CC2)[C@H]2CC[C@@H](c3cccnc3)CC2)cc1)C(F)(F)F", "endpoint": "pIC50", "test_result": "< 5.00"}
{"item_smiles": "C[C@](O)(c1ccc(C(=O)N(C2CC2)[C@H]2CC[C@](O)(c3ccccc3)CC2)cc1)C(F)(F)F", "endpoint": "pIC50", "test_result": 5.29}
{"item_smiles": "CC(C)[C@]1(O)CC[C@@H](N(C(=O)c2ccc([C@](C)(O)C(F)(F)F)cc2)C2CC2)CC1", "endpoint": "pIC50", "test_result": "< 5.00"}
{"item_smiles": "C[C@](O)(c1ccc(C(=O)N(C2CC2)[C@H]2CC[C@](C#N)(c3ccc(C#N)cc3)CC2)cc1)C(F)(F)F", "endpoint": "pIC50", "test_result": "< 5.00"}

Report pIC50 for C[C@](O)(c1ccc(C(=O)N(C2CC2)[C@H]2CC[C@](C#N)(c3ccccc3)CC2)cc1)C(F)(F)F
< 5.00

Report pIC50 for C[C@](O)(c1ccc(C(=O)N(C2CC2)[C@H]2CC[C@@H](c3ccc(C#N)cc3)CC2)cc1)C(F)(F)F
< 5.00

Report pIC50 for C[C@@](O)(c1ccc(C(=O)N(C2CC2)[C@H]2CC[C@@](C#N)(c3ccccn3)CC2)cc1)C(F)(F)F
< 5.00

Report pIC50 for C[C@](O)(c1ccc(C(=O)N(C2CC2)[C@H]2CC[C@](O)(c3ccccn3)CC2)cc1)C(F)(F)F
< 5.00

Report pIC50 for C[C@](O)(c1ccc(C(=O)N(C2CC2)[C@H]2CC[C@H](c3ccccc3)CC2)cc1)C(F)(F)F
< 5.00

Report pIC50 for C[C@](O)(c1ccc(C(=O)N(C2CC2)[C@H]2CC[C@](O)(CC3CC3)CC2)cc1)C(F)(F)F
5.55

Report pIC50 for C[C@](O)(c1ccc(C(=O)N(C2CC2)[C@H]2CC[C@H](c3ccc(C#N)cc3)CC2)cc1)C(F)(F)F
5.96

Report pIC50 for C[C@](O)(c1ccc(C(=O)N(C2CC2)[C@H]2CC[C@](C#N)(c3cccnc3)CC2)cc1)C(F)(F)F
< 5.00
